Tested on: Mycobacterium tuberculosis
Test: Antimycobacterial activity against Mycobacterium tuberculosis K18
Assay type: functional
OBSERVATION TYPE: MIC (µg/mL)
Answer with a number only, understood to be in µg/mL.

Input: Tell me MIC reported for O=C1c2ccccc2C(=O)c2oc(C(=O)N3CCN(c4cccc(C(F)(F)F)c4)CC3)cc21
Output: 2.5

Input: Tell me MIC reported for O=C1c2ccccc2C(=O)c2oc(C(=O)N3CCSCC3)cc21
Output: 0.5

Input: Tell me MIC reported for CC1(C)CCC(NC(=O)c2cc3c(o2)C(=O)c2ccccc2C3=O)CC1
Output: 2.5

Input: Tell me MIC reported for O=C1c2ccccc2C(=O)c2oc(C(=O)N3CCCCC3)cc21
Output: 2.5

Input: Tell me MIC reported for O=C(NCCc1ccccc1F)c1cc2c(o1)C(=O)c1ccccc1C2=O
Output: 2.5

----------
Provide the recorded MIC for the entries that follow.
Test system: Mycobacterium tuberculosis
Test: Antimycobacterial activity against Mycobacterium tuberculosis H37Rv
Assay type: functional
Answer with a number only, understood to be in µg/mL.

Input: Tell me MIC reported for O=C(NCCc1ccccc1F)c1cc2c(o1)C(=O)c1ccccc1C2=O
Output: 0.5

Input: Tell me MIC reported for O=C1c2ccccc2C(=O)c2oc(C(=O)N3CCSCC3)cc21
Output: 0.5

Input: Tell me MIC reported for CC1(C)CCC(NC(=O)c2cc3c(o2)C(=O)c2ccccc2C3=O)CC1
Output: 0.5

Input: Tell me MIC reported for O=C1c2ccccc2C(=O)c2oc(C(=O)N3CCN(c4cccc(C(F)(F)F)c4)CC3)cc21
Output: 1

Input: Tell me MIC reported for O=C1c2ccccc2C(=O)c2oc(C(=O)N3CCCCC3)cc21
Output: 0.5

----------
Provide the recorded MIC for the entries that follow.
Tested on: Mycobacterium tuberculosis
Test: Antimycobacterial activity against Mycobacterium tuberculosis K2
Type: functional
Answer with a number only, understood to be in µg/mL.

Input: Tell me MIC reported for O=C1c2ccccc2C(=O)c2oc(C(=O)N3CCSCC3)cc21
Output: 0.25

Input: Tell me MIC reported for O=C(NCCc1ccccc1F)c1cc2c(o1)C(=O)c1ccccc1C2=O
Output: 0.5

Input: Tell me MIC reported for O=C1c2ccccc2C(=O)c2oc(C(=O)N3CCCCC3)cc21
Output: 0.5

Input: Tell me MIC reported for O=C1c2ccccc2C(=O)c2oc(C(=O)N3CCN(c4cccc(C(F)(F)F)c4)CC3)cc21
Output: 0.5

Input: Tell me MIC reported for CC1(C)CCC(NC(=O)c2cc3c(o2)C(=O)c2ccccc2C3=O)CC1
Output: 0.25
